Source: patent US12662541B2

Biological target: T1, EphA5 antigen (Homo sapiens, UniProt P54756)
T1 construct: purchased R and D systems 3036-A5
Experiment: ka (1/Ms)
Protocol: Table printed on a drawing sheet, FIG. 19 Head of the field: ka (1/Ms) The patent's description of the figure: FIG. 19 is a table illustrating the Multi-cycle kinetic parameters of chimeric (VH0/VK0) and humanized variants (tested as purified proteins) binding to EphA5 antigen as determined using the Biacore T200. The relative KD was calculated by dividing the KD of the humanized variant by that of the VH0VK0 (first row) assayed in the same experiment. […]
readout: ka (M⁻¹ s⁻¹)
State just the number; it will be interpreted in M⁻¹ s⁻¹.

What measured ka goes with VH4/VK4: humanized anti-EphA5 antibody, VH SEQ ID NO:5, VL SEQ ID NO:12; lead variant (antibody, V domains shown) VH: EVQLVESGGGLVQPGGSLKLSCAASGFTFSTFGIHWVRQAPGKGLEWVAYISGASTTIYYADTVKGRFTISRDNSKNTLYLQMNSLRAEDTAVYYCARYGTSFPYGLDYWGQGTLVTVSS VL: DIVMTQSPDSLAVSLGERATINCKSSQSVDYDGDSYMNWYQQKPGKAPKLLIYGASNLESGIPDRFSGSGSGTDFTLTISRLEPEDAASYYCQQSNEDPFTFGQGTKLEIK ?
1.27e+06
